Data origin, for the record: PubChem BioAssay (NCATS)

assay: Quantitative High-Throughput drug screen in 47 multiple myeloma cell lines against the NCATS MIPE library collection: PCM6_Riken cell viability assay (AID 1919870); conditions: CellTiter-Glo ATP, 48 h; series mostly up to 45.8 µM; note: nearly all actives have a fitted effect of over 30% in size
Records with an inconclusive call do not appear. Active and inactive are the calls of the source. Calls come from the whole dose curve; as a rule, active = well fitted cell-killing curve with a large enough effect; inconclusive = small, poorly fitted or top-dose-only effect, or effect the other way; inactive = no such curve, though single readings can be large or run the other way.
Return exactly one item of active, inactive

Before answering, review these 5 worked examples.
compound | label value
C[C@]12CCC3c4ccc(O)cc4CCC3C1CCC2=O (stereo not given in full) | inactive
CN1CCN(CCOc2cc(OC3CCOCC3)c3c(Nc4c(Cl)ccc5c4OCO5)ncnc3c2)CC1 | active
Cc1cnc(C(=O)O)c[n+]1[O-] | inactive
O=c1[nH]cnc2c1ncn2[C@H]1CC[C@@H](CO)O1 | inactive
Cc1nc(N)sc1-c1ccnc(Nc2ccc(N3CCOCC3)cc2)n1 | active

I'd appreciate the recorded outcome for NC[C@@H]1O[C@@H](O[C@H]2[C@@H](O)[C@H](O[C@@H]3[C@@H](O)[C@@H](N)C[C@H](N)[C@H]3O[C@H]3O[C@H](CN)[C@@H](O)[C@@H](O)[C@H]3N)O[C@H]2CO)[C@H](N)[C@@H](O)[C@@H]1O from this test.
inactive

# fetch the recorded call for O=C1c2c(O)cc(O)cc2O[C@H](c2cc(O)c(O)c(O)c2)[C@H]1O here
inactive

What is the recorded call for this compound in the test? CC(=Cc1ccccc1)C=C1SC(=S)N(CC(=O)O)C1=O
inactive

Query: recorded result category for C=C1C(=O)OC2C=C(C)CCC=C(C)CCC12 (stereo not given) in this test
active

Look up the recorded call for CN(C)Cc1ccc(-c2nc3cccc4c3n2CCNC4=O)cc1 in this test.
active
